Origin of measurements: patent US20250250357A1

The entries below are paired with their reported OD450.
target: T1, human MSLN-R3-his protein (human, UniProt Q13421 487-598); assay: ELISA on coated antigen, antibody 1 nM
T1 construct: Self-made in HEK293E cells; also called human MSLN-R3 protein; hMSLN-R3-his; not shown: His tag
T1 sequence (Q13421 495-606): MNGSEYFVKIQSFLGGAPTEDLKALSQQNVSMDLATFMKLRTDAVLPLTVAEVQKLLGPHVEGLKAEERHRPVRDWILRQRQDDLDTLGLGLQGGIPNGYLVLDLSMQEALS
The answer is to be given in OD450; state only the numeric part.

- S009-F2.39.3 (antibody, human IgG1, kappa, V domains shown, Human-murine chimeric antibody: murine VH/VL on human IgG1 heavy and kappa light constant regions) VH: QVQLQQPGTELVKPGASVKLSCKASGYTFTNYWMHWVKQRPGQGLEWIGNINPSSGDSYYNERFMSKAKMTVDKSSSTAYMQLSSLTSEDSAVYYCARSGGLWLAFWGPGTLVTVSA VL: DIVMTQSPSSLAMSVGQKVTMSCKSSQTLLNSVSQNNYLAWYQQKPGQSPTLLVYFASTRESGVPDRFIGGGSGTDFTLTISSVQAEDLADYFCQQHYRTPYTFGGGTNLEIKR: 0.25
- S009-F2.16.10 (antibody, human IgG1, kappa, V domains shown, Human-murine chimeric antibody: murine VH/VL on human IgG1 heavy and kappa light constant regions) VH: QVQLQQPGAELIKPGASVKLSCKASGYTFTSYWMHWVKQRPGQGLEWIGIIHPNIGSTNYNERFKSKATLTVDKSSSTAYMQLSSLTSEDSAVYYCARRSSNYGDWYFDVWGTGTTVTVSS VL: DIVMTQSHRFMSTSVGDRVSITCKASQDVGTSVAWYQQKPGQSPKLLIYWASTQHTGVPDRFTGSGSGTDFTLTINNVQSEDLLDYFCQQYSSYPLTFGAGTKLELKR: 0.05
- S009-F2-56.12 (antibody, human IgG1, kappa, V domains shown, Human-murine chimeric antibody: murine VH/VL on human IgG1 heavy and kappa light constant regions) VH: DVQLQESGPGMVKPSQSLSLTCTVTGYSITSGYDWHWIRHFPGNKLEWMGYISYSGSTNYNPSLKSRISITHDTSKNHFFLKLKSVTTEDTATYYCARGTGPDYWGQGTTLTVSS VL: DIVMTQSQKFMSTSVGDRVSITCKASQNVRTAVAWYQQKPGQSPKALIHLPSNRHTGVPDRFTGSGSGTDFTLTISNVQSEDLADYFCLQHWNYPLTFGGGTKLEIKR: 0.06
- S009-F2.23.12 (antibody, human IgG1, kappa, V domains shown, Human-murine chimeric antibody: murine VH/VL on human IgG1 heavy and kappa light constant regions) VH: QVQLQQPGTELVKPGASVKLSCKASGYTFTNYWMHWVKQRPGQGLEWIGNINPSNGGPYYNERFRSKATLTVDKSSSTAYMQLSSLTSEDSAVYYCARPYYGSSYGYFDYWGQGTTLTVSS VL: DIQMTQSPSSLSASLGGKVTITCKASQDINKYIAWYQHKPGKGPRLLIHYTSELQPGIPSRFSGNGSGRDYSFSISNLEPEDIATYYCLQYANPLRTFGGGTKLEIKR: 0.3
- S009-F2.38.12 (antibody, human IgG1, kappa, V domains shown, Human-murine chimeric antibody: murine VH/VL on human IgG1 heavy and kappa light constant regions) VH: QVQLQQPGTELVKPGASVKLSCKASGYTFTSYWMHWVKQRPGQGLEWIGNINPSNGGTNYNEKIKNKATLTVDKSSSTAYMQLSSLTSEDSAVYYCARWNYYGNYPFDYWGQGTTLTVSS VL: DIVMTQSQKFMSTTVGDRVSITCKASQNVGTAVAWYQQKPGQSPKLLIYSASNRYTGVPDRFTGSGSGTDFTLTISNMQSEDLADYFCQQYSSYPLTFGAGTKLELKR: 0.05

// switching to the query binder
(Q) Recorded OD450 of S009-F2.21.4 (antibody, human IgG1, kappa, V domains shown, Human-murine chimeric antibody: murine VH/VL on human IgG1 heavy and kappa light constant regions) VH: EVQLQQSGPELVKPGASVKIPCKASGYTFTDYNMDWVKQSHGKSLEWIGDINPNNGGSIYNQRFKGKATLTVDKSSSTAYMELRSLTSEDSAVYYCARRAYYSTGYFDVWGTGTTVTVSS VL: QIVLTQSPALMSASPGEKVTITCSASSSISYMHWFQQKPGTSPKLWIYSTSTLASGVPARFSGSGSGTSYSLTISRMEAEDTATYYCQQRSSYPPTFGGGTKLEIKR , please.
(A) 0.05
